assay system: TGFβ1 (R&D Systems)
Sequence (P01137 279-390): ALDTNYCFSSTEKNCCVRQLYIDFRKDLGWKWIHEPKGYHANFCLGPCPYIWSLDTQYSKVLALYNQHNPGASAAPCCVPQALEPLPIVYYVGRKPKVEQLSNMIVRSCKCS
measurement protocol: cell-based or functional assay
Assignment: determine reported TGFb1 IC50 (SMAD3 phosphorylation in CMVICs, AlphaLISA) for the given binders.
Provide only the numeric value, understood in µg/mL.

Entry Felinized anti-TGFβ1,2,3 antibody VH2.8 - VL6 (antibody, V domains shown) VH: QVQLVQSGAEVKKPGSSVKVSCKASGYTFSSNVISWVRQTPAQGFEWMGGVIPIVDIANYAQRFKGRLVLTADTSTNTAYMELRSLKSADTAVYYCASTLGLVLDAMDYWGQGTLVTVSS VL: QSVLTQPPSVSGSLGQRVTISCRASQSLGSSYLAWYQQVPGRAPRLLIYGASSRAPGIPDRFSGSKSGTSGSLTITGLEADDEADYYCQQYADSPITFGGGTHLTVLG , TGFb1 IC50 (SMAD3 phosphorylation in CMVICs, AlphaLISA) reported as 0.969

Entry Caninized anti-TGFβ1,2,3 antibody VH4.7 - VL2 (antibody, V domains shown) VH: QVQLVQSGAEVKKPGSSVKVSCKASGYTFSSNVISWVRQAPGKGLQWVGGVIPIVDIANYAQRFKGRVTITADESTSTTYMELSSLRSEDTAVYYCASTLGLVLDAMDYWGQGTLVTVSS VL: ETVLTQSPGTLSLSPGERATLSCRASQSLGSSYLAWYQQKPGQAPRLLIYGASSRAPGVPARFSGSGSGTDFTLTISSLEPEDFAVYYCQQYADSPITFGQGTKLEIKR , TGFb1 IC50 (SMAD3 phosphorylation in CMVICs, AlphaLISA) reported as 0.071

Entry Felinized anti-TGFβ1,2,3 antibody VH2.2 - VL3 (antibody, V domains shown) VH: QVLLVQSGADVRKPGASVKIFCKASGYTFSSNVMHWVRQTPAQGFEWMGSVIPIVDIATYARRFQGRLVLTADTSTNTAYMELRSLKSADTAVYYCARTLGLVLDAMDYWGQGSLVTVSS VL: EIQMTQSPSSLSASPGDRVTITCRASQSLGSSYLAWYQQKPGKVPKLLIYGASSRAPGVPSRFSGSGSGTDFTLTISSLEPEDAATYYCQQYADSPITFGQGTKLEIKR , TGFb1 IC50 (SMAD3 phosphorylation in CMVICs, AlphaLISA) reported as 0.24

// data source = patent US20230192834A1
